study target: UniProtKB Q9Y271
Sequence (Q9Y271 whole entry): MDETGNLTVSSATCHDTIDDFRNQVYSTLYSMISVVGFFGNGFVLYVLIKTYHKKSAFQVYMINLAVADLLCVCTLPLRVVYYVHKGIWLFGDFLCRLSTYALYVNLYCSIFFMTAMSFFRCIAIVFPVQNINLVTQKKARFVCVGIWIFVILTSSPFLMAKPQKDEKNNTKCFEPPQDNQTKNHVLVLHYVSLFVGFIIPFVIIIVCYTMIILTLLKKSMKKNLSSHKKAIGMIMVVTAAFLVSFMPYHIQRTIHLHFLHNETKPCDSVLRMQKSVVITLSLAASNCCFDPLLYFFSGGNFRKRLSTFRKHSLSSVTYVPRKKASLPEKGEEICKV
assay notes: CysLT1R antagonism assay, cell-based
property: IC50

Ask: # return recorded IC50 for input CC(C)(C)c1ccc(C(=O)Nc2ccc3ccn(Cc4ccc(C(=O)O)cc4)c3c2)cc1
Result: > 1000 nM

Ask: # return recorded IC50 for input COc1cc(C(=O)O)ccc1Cn1ccc2ccc(NC(=O)c3ccc(C(C)(C)C)cc3)cc21
Result: ~1000 nM

----------
study target: recombinant human sEH (Homo sapiens, UniProt P34913)
assay notes: sEH activity assay on recombinant protein
Please provide measured pIC50 for the entries that follow.
Keep it numeric: pIC50 is minus log10 of the concentration in mol/L.

Ask: Provide pIC50, recorded with recombinant human sEH (Homo sapiens, UniProt P34913), of COc1cc(C(=O)O)ccc1Cn1cnc2ccc(NC(=O)c3ccc(C(C)(C)C)cc3)cc21
Result: 4.74

Ask: Provide pIC50, recorded with recombinant human sEH (Homo sapiens, UniProt P34913), of Cn1cc(Cc2ccc(C(=O)O)cc2)c2cc(NC(=O)c3ccc(C(C)(C)C)cc3)ccc21
Result: 4.92

Ask: Provide pIC50, recorded with recombinant human sEH (Homo sapiens, UniProt P34913), of COc1ccc(C(=O)O)cc1Cc1cn(C)c2ccc(NC(=O)c3ccc(C(C)(C)C)cc3)cc12
Result: 4.07

Ask: Provide pIC50, recorded with recombinant human sEH (Homo sapiens, UniProt P34913), of CC(C)(C)c1ccc(C(=O)Nc2ccc3ccn(Cc4cccc(C(=O)O)c4)c3c2)cc1
Result: 5.37

Ask: Provide pIC50, recorded with recombinant human sEH (Homo sapiens, UniProt P34913), of Cn1cc(Cc2cccc(C(=O)O)c2)c2cc(NC(=O)c3ccc(C(C)(C)C)cc3)ccc21
Result: 4.66

Ask: Provide pIC50, recorded with recombinant human sEH (Homo sapiens, UniProt P34913), of COc1cc(C(=O)O)ccc1Cc1cn(C)c2ccc(NC(=O)c3c(-c4c(Cl)cccc4Cl)noc3C(C)C)cc12
Result: 5.48

----------
study target: human full-length FXR (Homo sapiens)
Sequence (Q96RI1 whole entry): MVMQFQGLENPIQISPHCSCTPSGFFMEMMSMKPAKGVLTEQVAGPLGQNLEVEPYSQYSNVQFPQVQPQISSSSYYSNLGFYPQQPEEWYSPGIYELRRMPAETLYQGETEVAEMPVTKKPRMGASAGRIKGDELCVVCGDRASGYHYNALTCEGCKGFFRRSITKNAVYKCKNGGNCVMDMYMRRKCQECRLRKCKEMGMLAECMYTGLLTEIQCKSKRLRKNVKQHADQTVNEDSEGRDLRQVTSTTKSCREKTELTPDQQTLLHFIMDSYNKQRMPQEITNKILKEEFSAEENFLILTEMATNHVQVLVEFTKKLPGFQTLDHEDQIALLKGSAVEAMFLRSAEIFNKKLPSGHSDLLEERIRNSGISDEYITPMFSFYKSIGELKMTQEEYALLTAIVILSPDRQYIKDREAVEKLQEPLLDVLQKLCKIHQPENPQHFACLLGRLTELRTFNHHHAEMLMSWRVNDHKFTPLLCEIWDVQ
Sequence (P19793 whole entry partner): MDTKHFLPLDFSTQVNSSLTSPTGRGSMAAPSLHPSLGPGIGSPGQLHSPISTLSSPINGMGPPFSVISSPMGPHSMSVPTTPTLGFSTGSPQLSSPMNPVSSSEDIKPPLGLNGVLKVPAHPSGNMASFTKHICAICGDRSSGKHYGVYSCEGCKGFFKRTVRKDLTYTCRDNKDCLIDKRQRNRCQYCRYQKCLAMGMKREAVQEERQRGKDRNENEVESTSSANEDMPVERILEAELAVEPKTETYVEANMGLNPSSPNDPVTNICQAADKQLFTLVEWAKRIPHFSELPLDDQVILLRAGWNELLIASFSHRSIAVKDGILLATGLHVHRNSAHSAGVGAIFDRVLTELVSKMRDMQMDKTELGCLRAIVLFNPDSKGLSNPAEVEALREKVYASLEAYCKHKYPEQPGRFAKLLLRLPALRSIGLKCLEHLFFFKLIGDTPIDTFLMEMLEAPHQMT
assay notes: full-length FXR-BSEP reporter gene assay
Format: cell-based
cond: HeLa, read-out: FXR max. rel. act.
property: Emax (%)
Value expressed in %; do not type the unit.

Ask: # return recorded Emax for input COc1cc(C(=O)O)ccc1Cn1ccc2cc(NC(=O)c3ccc(C(C)(C)C)cc3)ccc21
Result: 23

Ask: # return recorded Emax for input COc1cc(C(=O)O)ccc1Cn1cnc2ccc(NC(=O)c3ccc(C(C)(C)C)cc3)cc21
Result: 26

Ask: # return recorded Emax for input COc1cc(C(=O)O)ccc1Cc1cn(C(C)C)c2ccc(NC(=O)c3ccc(C(C)(C)C)cc3)cc12
Result: 11

Ask: # return recorded Emax for input COc1cc(C(=O)O)ccc1Cc1cn(C)c2ccc(NC(=O)c3ccc(C(C)(C)C)cc3)cc12
Result: 29

----------
study target: recombinant human sEH (Homo sapiens)
Sequence (P34913 1-555): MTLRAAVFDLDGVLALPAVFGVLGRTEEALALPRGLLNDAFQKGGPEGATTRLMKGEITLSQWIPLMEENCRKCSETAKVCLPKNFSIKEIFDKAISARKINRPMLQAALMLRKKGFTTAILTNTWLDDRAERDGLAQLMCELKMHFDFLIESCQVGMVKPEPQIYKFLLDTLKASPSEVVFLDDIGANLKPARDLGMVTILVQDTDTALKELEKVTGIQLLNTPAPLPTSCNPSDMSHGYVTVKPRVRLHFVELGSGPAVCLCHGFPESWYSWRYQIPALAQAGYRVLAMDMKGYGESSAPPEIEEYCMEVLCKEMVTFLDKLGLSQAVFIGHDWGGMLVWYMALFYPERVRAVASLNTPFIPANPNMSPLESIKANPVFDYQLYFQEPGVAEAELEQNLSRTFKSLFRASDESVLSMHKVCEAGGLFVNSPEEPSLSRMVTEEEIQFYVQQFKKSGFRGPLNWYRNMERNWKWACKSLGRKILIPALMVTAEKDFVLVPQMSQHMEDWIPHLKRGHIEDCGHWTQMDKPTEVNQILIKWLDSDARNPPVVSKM
assay notes: sEH activity assay on recombinant protein
pIC50: −log10 of the molar value.
property: pIC50

Ask: # return recorded pIC50 for input COc1cc(C(=O)O)ccc1Cc1cn(C)c2ccc(NC(=O)c3ccc(C(C)(C)C)cc3)cc12
Result: < 4.52

Ask: # return recorded pIC50 for input COc1cc(C(=O)O)ccc1Cc1cn(C)c2ccc(NC(=O)c3ccncc3)cc12
Result: < 4.00

Ask: # return recorded pIC50 for input COc1cc(C(=O)O)ccc1Cn1ccc2cc(NC(=O)c3ccc(C(C)(C)C)cc3)ccc21
Result: < 4.00

Ask: # return recorded pIC50 for input COc1cc(C(=O)O)ccc1Cc1cn(C(C)C)c2ccc(NC(=O)c3ccc(C(C)(C)C)cc3)cc12
Result: < 4.00
